target: Androgen receptor (Homo sapiens); assay: qHTS assay to identify small molecule agonists of the androgen receptor (AR) signaling pathway in the presence of an antagonist (AID 1259381); conditions: MDA-kb2 MMTV-luciferase, AR agonist + nilutamide, 16 h; series mostly up to 42.5 µM; note: % is set by controls: 0 for no effect and ±100 for the full control effect; nearly all actives have a fitted effect of over 15% in size
Active and inactive are the calls of the source. Calls come from the whole dose curve.
MEASURE_NAME: activation

> print(dat)
                             compound                    assayed.target  observed.measurement
1                        NCCCN1CCOCC1  Androgen receptor (Homo sapiens)              inactive
2  NS(=O)(=O)c1ccc(N2CCCCS2(=O)=O)cc1  Androgen receptor (Homo sapiens)              inactive
3     O=CC1CC=CCC1 (stereo not given)  Androgen receptor (Homo sapiens)              inactive
4                       OCCNCc1ccccc1  Androgen receptor (Homo sapiens)              inactive
5   COc1ccc(C(=O)c2ccc(OC)cc2O)c(O)c1  Androgen receptor (Homo sapiens)              inactive

###

test: qHTS assay to identify small molecule antagonists of the estrogen related receptor signaling pathway with the pleiotropic PPARgamma coactivator (PGC) cell viability counter screen (AID 1224822;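 note: viability read after 17.5 h compound exposure; % is set by controls: 0 for no effect and ±100 for the full control effect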); conditions: ERR/PGC reporter cell line viability counter screen; series mostly up to 46.1 µM
Inconclusive results are not listed. Activity calls are given as the source filed them. Calls follow the shape of the dose curve; as a rule, active = well fitted cell-killing curve with a large enough effect in the repeat runs; inconclusive = weak or mixed curves, or effect the other way; inactive = flat fitted curve, though single readings scatter.
MEASURE_NAME: outcome

> print(dat)
                                   compound  observed.measurement
1  C[N+](C)(C)CCOC(=O)CCC(=O)OCC[N+](C)(C)C              inactive
2    CC(=O)c1ccc2c(c1)N(CCCN(C)C)c1ccccc1S2              inactive
3  COc1cc2nc(N(C)CCCNC(=O)C3CCCO3)nc(N)c2cc1OC (stereo not given)              inactive
4                       c1ccc(-c2ccccn2)nc1              inactive
5  CCCNCC(O)COc1ccccc1C(=O)CCc1ccccc1 (stereo not given)              inactive

###

Assay: qHTS assay to identify small molecule agonists of the sonic hedgehog signaling (Shh) pathway (AID 1259368);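 note: NIH/3T3-derived 3T3Gli1-Luc cells carrying a stable Gli1-driven firefly luciferase reporter; % is set by controls: 0 for no effect and ±100 for the full control effect; nearly all actives have a fitted effect of over 15% in size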
Details: NIH/3T3 Gli1-Luc reporter, luciferase, 24 h, stronger effect = higher value; series mostly up to 92.4 µM
Excerpt: National Center for Advancing Translational Sciences [NCATS] NIH Chemical Genomics Center [NCGC] U.S. Environmental Protection Agency [EPA] National Institutes of Environmental Health Sciences [NIEHS] National Toxicology Program [NTP] The sonic hedgehog (Shh) pathway is essential for normal embryonic development. Dysregulation of the Shh pathway can cause severe developmental defects in organs. Therefore chemicals that interfere with the pathway are potential developmental toxicants. […]
The source made the active and inactive calls. The call rests on the fitted dose curve.
MEASURE_NAME: activity change

> print(dat)
                                    molecule            observed.measurement
 1  CCCCC(CC)CN1C(=O)C2C3C=CC(C3)C2C1=O (stereo not drawn)                        inactive
 2   CCOC(=O)C(O)c1ccccc1 (stereo not drawn)                        inactive
 3                             C/C=C/C(=O)CC  -3.94% [at 18.9 µM] (inactive)
 4  C#Cc1cccc(Nc2ncnc3cc(OCCOC)c(OCCOC)cc23)c1                        inactive
 5                     CC(C)(CO)[N+](=O)[O-]                        inactive
 6  O=C(Nc1ccc(S(=O)(=O)N2CCOCC2)cc1)c1cc(Cl)ccc1NS(=O)(=O)c1ccc(Cl)s1                        inactive
 7         CC1CCC(=O)C1=O (stereo not drawn)                        inactive
 8  Cc1ccc(C(C)OC(=O)C2(C)CCC(C(=O)O)C2(C)C)cc1 (stereo not drawn)                        inactive
 9                                  CC(=O)NO                        inactive
10  CN1Cc2cc(C(=O)N3CCC(C4CCNCC4)CC3)ccc2NC(CC(=O)O)C1=O (stereo not drawn)                        inactive
11  CCCCC(CC)COC(=O)COc1ccc(Cl)cc1Cl (stereo not drawn)                        inactive
12  OC[C@H]1O[C@@H](OCCc2ccc(O)cc2)[C@H](O)[C@@H](O)[C@@H]1O                        inactive
13  CC(C)C[C@H]1C(=O)N2CCC[C@H]2[C@]2(O)O[C@](NC(=O)[C@@H]3C=C4c5cccc6[nH]c(Br)c(c56)C[C@H]4N(C)C3)(C(C)C)C(=O)N12                        inactive
14  O=C1c2ccccc2S(=O)(=O)N1CCCCN1CCN(c2ncccn2)CC1                        inactive
15  O[C@@H](COc1cccc2ncccc12)CN1CCN(C2c3ccccc3[C@@H]3[C@H](c4ccccc42)C3(F)F)CC1 (stereo partly drawn)                        inactive
16  CCN(CC)c1ccc(C(=C2C=CC(=[N+](CC)CC)C=C2)c2cc(S(=O)(=O)O)ccc2S(=O)(=O)[O-])cc1                        inactive
17                    Brc1c2ccccc2cc2ccccc12                        inactive
18  CC(=O)OC[C@H]1O[C@@H](n2ncc(=O)[nH]c2=O)[C@H](OC(C)=O)[C@@H]1OC(C)=O                        inactive
19                   Nc1cccc([N+](=O)[O-])c1                        inactive
20                           CCNc1cc(O)ccc1C                        inactive
21  CCCCC/C=C\C/C=C\CCCCCCCC(=O)NC(C)c1ccccc1 (stereo not drawn)                        inactive
22                 CCCCCCCCCCCCCCOS(=O)(=O)O                        inactive
23  CN(C)c1ccc(/C=C/c2ccc([N+](=O)[O-])cc2)cc1   7.46% [at 8.39 µM] (inactive)
